- studySystem: T1, RSV F antigen (respiratory syncytial virus (RSV), UniProt P03420 26-524)
- T1 construct: also called F antigen of RSV; RSV F protein
- T1 sequence (P03420 26-524): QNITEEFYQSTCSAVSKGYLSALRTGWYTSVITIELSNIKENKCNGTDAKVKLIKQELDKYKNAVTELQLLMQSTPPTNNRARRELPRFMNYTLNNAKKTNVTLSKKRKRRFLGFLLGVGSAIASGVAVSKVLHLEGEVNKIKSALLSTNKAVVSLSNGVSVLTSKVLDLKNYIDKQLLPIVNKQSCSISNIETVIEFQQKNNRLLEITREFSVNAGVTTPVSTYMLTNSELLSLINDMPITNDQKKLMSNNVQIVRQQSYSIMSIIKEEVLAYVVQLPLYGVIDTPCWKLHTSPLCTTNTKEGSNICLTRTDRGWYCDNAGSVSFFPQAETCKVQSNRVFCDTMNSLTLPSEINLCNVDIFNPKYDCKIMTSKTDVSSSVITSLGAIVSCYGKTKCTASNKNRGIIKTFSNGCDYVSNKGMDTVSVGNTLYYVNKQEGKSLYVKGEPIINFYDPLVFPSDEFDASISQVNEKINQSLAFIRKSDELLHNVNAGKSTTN
- methodDescription: antibody titration ELISA on 500 ng RSV F antigen; qualitative score from titration curves
endpointLabel: Ag Score

{"columns": ["binder", "Ag Score"],
 "data": [
  ["clone 14 (SFFW) (antibody, V domains shown) VH: QVTLRESGPALVKPTQTLTLTCTFSGFSLSTSGMSVGWIRQPPGKALEWLADIWWDDKKDYNPSLKSRLTISKDTSKNQVVLKVTNMDPADTATYYCARSMITNFYFDVWGQGTTVTVSS VL: DIQMTQSPSTLSASVGDRVTITCSASSSVGYMHWYQQKPGKAPKLLIYDTFKLASGVPSRFSGSGSGTEFTLTISSLQPDDFATYYCFQGSWYPFTFGGGTKVEIK", "2.5 arbitrary score (0-4)"]
]}

Prompt line: # Ag Score lookup, item clone 5 (PFFW) (antibody, V domains shown) VH: QVTLRESGPALVKPTQTLTLTCTFSGFSLSTPGMSVGWIRQPPGKALEWLADIWWDDKKDYNPSLKSRLTISKDTSKNQVVLKVTNMDPADTATYYCARSMITNFYFDVWGQGTTVTVSS VL: DIQMTQSPSTLSASVGDRVTITCSASSSVGYMHWYQQKPGKAPKLLIYDTFKLASGVPSRFSGSGSGTEFTLTISSLQPDDFATYYCFQGSWYPFTFGGGTKVEIK
Response line: 3.5 arbitrary score (0-4)

Prompt line: # Ag Score lookup, item reference antibody IX-493 (SWSG) (Fab, V domains shown, also called Basic; basic antibody) VH: QVTLRESGPALVKPTQTLTLTCTFSGFSLSTSGMSVGWIRQPPGKALEWLADIWWDDKKDYNPSLKSRLTISKDTSKNQVVLKVTNMDPADTATYYCARSMITNWYFDVWGQGTTVTVSS VL: DIQMTQSPSTLSASVGDRVTITCSASSSVGYMHWYQQKPGKAPKLLIYDTSKLASGVPSRFSGSGSGTEFTLTISSLQPDDFATYYCFQGSGYPFTFGGGTKVEIK
Response line: 0.1 arbitrary score (0-4)
